Listing: PBM binding z-score of selected sequences
- Test system: RARb homodimer (NR concentration 270 nM)
- protocol text: PBM binding z-score (relative to random genomic background probes); higher = stronger binding; sequences stand for … in GC…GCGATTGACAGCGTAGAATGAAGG

{"monomer sequence": "ATCGAAAGGTCGTGGGGTGAGTATACAGAAAGGC", "PBM binding z-score": 3.6}
{"monomer sequence": "CGCCCAAGGTCAATGCTAGGTCAGTGAAAGCATT", "PBM binding z-score": 5.07}
{"monomer sequence": "CCGACTGGGGCCAGGTTACCATAACGCACAGCCA", "PBM binding z-score": 0.918}
{"monomer sequence": "CGTCCAAGGTCAAGGTCATTGAAAGAGACTCGAA", "PBM binding z-score": 5.3}
{"monomer sequence": "CCTGCTAGGTCAATAGTCAGCTAAAGCAGCTCGC", "PBM binding z-score": 2.18}
{"monomer sequence": "TCATATAGGTAAACTGGTGAAAGTCCGTAAGTTA", "PBM binding z-score": 0.366}
{"monomer sequence": "CCTACTGGTCCAAAGGTCATTGATTCCAATGCTC", "PBM binding z-score": 4.86}
{"monomer sequence": "CAAACTAGGTCACAGAGGTCACAGTCCGTGCGTA", "PBM binding z-score": 5.65}
{"monomer sequence": "AGTCAAAGTCCATCTAGGTAACGTAAGATATGCT", "PBM binding z-score": 0.564}
{"monomer sequence": "AGAATGAGGTTATACGTTGATCAGGGAAGAAAGT", "PBM binding z-score": 0.786}
{"monomer sequence": "CGAACTAGGTCAGAACAGGACAATGAAGGATGAT", "PBM binding z-score": 2.03}
{"monomer sequence": "CGAACTAGGTCAGATCAGGACAGTGAAGGATGAT", "PBM binding z-score": 2.33}
{"monomer sequence": "TCATATAGGTACTACAGGTGAAAGTCGGCATCTA", "PBM binding z-score": 0.25}
{"monomer sequence": "ATATGTAGATTAAGGGTCATTCAGGTTGGTTCGC", "PBM binding z-score": 3.42}
{"monomer sequence": "GCAGGCAGGTGAAACGCAGGTAACTCAGGGTGGC", "PBM binding z-score": -0.0937}
{"monomer sequence": "CGTCAAAGTTCGAGGTAACGTAACAGAAAGCAGC", "PBM binding z-score": 1.46}
{"monomer sequence": "TCGAGCAGGTTACCAATGGGGCATTCAGCTTTCT", "PBM binding z-score": 0.557}
{"monomer sequence": "ACTAGTTGGTCAGCCGAGGTCACACACAATTCGG", "PBM binding z-score": 4.36}
{"monomer sequence": "CCTATTTGTTGACCATAAGGGCAACCGAAGCTCG", "PBM binding z-score": 2.18}
{"monomer sequence": "GCTAGTTGGTCAGTAAAGGGTCACACACCGGTCG", "PBM binding z-score": 4.43}
{"monomer sequence": "ATACCAAGGTGATCGTGAGGTCGTAGATACTAAC", "PBM binding z-score": 1.56}
{"monomer sequence": "GCTTGTAGATCAAGGTTAAGAAGGACTAAGCTAA", "PBM binding z-score": 0.182}
{"monomer sequence": "CCTAGTTGGTAAGGAGGTCACACACCGGATATGA", "PBM binding z-score": 3.85}
{"monomer sequence": "TAGCCTAGGTCATGGTCCAGTATACCACGCGAAC", "PBM binding z-score": 3.04}
{"monomer sequence": "TAGCCTAGGTCATTCAGGGGCCAATATAGAAAGC", "PBM binding z-score": 3.51}
{"monomer sequence": "AGAATGAGGTTCCCAAAGATCAGGGAAACGCTTG", "PBM binding z-score": -0.864}
{"monomer sequence": "ATATGTAGGTTACATCTGGGTCATTCAGGCTATG", "PBM binding z-score": 3.02}
{"monomer sequence": "ATCTCTAGGAAAAGATAGTTCAGTGAATGCAAAT", "PBM binding z-score": 0.679}
{"monomer sequence": "CATACAGGGTCACCTAGGCCAGAGTAGGGACGGC", "PBM binding z-score": 3.71}
{"monomer sequence": "TCGAGTAGGTTACCAATGGGGCATTCCGCTTTCT", "PBM binding z-score": 0.449}
{"monomer sequence": "CAAACTAGGTCATGGTCAAAGTCGGTTTGTGCCA", "PBM binding z-score": 3.44}
{"monomer sequence": "GCTGCTAGGTCAACTGATGTTCAGCTAAAGCTCG", "PBM binding z-score": 3.45}
{"monomer sequence": "TCTTGTTGATCAACAGGAGGTTAAGAAAGATCGA", "PBM binding z-score": 0.286}
{"monomer sequence": "TCATACAGGTAAATGCTAGGTGAAAGTCCGATCT", "PBM binding z-score": 0.654}
{"monomer sequence": "GTAACGAGGGCAAGTTGATAGCAGAGTTTGATGG", "PBM binding z-score": 1.71}
{"monomer sequence": "CCTCGGAGGACGGAAGGTCAGAGCTGTCCGCTTT", "PBM binding z-score": 2.97}
{"monomer sequence": "TCCAGCAGGCCAGAGGGTCACTCAAGAGGTACGG", "PBM binding z-score": 2.93}
{"monomer sequence": "AGAACGAGGGCACGCTTAGTTGATAGCAGAGTAG", "PBM binding z-score": 1.38}
{"monomer sequence": "CGTCGAAGTTCAAGGTAACGTAACAGAAAGCAGC", "PBM binding z-score": 1.95}
{"monomer sequence": "CGTCCAAGGTCAAAGGTTAGTGAAGAGATGACGG", "PBM binding z-score": 4.34}
{"monomer sequence": "ACTCGGAGGCCAAAGGTCAGAGCTACGCCAGTGA", "PBM binding z-score": 4.54}
{"monomer sequence": "CCTAGCAGGCCAGGATCACTCAAGCATTTCGCTT", "PBM binding z-score": -0.596}
{"monomer sequence": "CCTACTGGGCCACGAAACGTCATTGATTCAGTGA", "PBM binding z-score": -0.373}
{"monomer sequence": "ATCGAAAGGTCGAGGTGAGTAGAGAGAAAGGGAA", "PBM binding z-score": 2.81}
{"monomer sequence": "TAGCCTAGGTCATGGGCCCGTATACCACGCGAAC", "PBM binding z-score": 2.95}
{"monomer sequence": "CGAACGAGGACATGAGTTGATAGCAAATGCCGAT", "PBM binding z-score": 0.159}
{"monomer sequence": "CCAGACAGGCGAAAGGTAACTCAGTCTGGTACGC", "PBM binding z-score": -0.261}
{"monomer sequence": "CGAACTAGGTCATCCAGGACAGTCAATACATTGA", "PBM binding z-score": 3.04}
{"monomer sequence": "CGTGCTAGGTCAATGGTCAGCTAAAGCAGCTCGC", "PBM binding z-score": 2.95}
{"monomer sequence": "TCGAGTAGGTTACCAATGGGGCAGTCAGCTTTCT", "PBM binding z-score": 0.628}
{"monomer sequence": "CCGACTGGGGCATAAAGGTTACCATACCATCCGG", "PBM binding z-score": 2.16}
